test: Tmax in Swiss albino mouse at 10 mg/kg, po; format: ADME, organism-based; details: in vivo
Measured attribute: Tmax (min)
Field: numeric (min). Do not append units.

[ask] State the recorded Tmax for this entry: C=CC(=O)Nc1cccc(CNc2nc(Nc3ccc(N4CCN(C)CC4)cc3OC)ncc2Cl)c1
[reply] 30
